This collection of values is drawn from ChEMBL document CHEMBL4806969.

system.tested: UniProt Q96LA9
experiment.notes: Antagonist activity at human MRGPRX4 expressed in HEK cells incubated in dark for 1 hr at 37 degree C and then incubated for 30 mins at room temperature in presence of 100 uM of conjugated bilirubin by HTRF assay
Assay type: functional, cell-based
parameter.measured: IC50 (nM)
One number for each entry, in nM.

Using the record for Cc1cc(C(F)(F)F)ccc1OCc1cccc(C(=O)O)c1F , report its IC50.
12

----------
system.tested: Mas-related G-protein coupled receptor member X4 (Homo sapiens)
experiment.notes: Antagonist activity at human MRGPRX4 expressed in HEK cells incubated in dark for 1 hr at 37 degree C and then incubated for 30 mins at room temperature in presence of 20 uM of deoxycholic acid by HTRF assay
Assay type: functional, cell-based
parameter.measured: pIC50
Numbers only, as −log10 of the molar value.

O=C(O)c1cccc(COc2ccc(Cl)c(Cl)c2Cl)c1 : 7.62
O=C(O)c1cccc(COc2ccc(C(F)(F)F)cc2Cl)c1 : 7.34

Would you be so kind as to report pIC50 for each listed record?
1. CCc1cc(COc2ccc(C(F)(F)F)cc2Cl)nc(C(=O)O)c1
2. Cc1cc(C(F)(F)F)ccc1OCc1cccc(C(=O)O)c1F
3. O=C(O)c1cccc(COc2ccc(Cl)cc2Cl)c1

7.80
7.12
6.89

----------
experiment.notes: AUC in C57BL/6 mouse at 50 mg/kg, po measured upto 24 hrs by LC-MS/MS analysis
Assay type: ADME, organism-based
Parameters: route oral, dose 50 mg/kg, time <=24
measurement.setup: in vivo
Exercise: for every item that follows, state its recorded AUC at 24 h.
One number for each entry, in µM·h.

O=C(O)c1cccc(COc2ccc(Cl)c(Cl)c2Cl)c1 : 219
O=C(O)c1cccc(COc2ccc(C(F)(F)F)cc2Cl)n1 : 880
CCc1cc(COc2ccc(C(F)(F)F)cc2Cl)nc(C(=O)O)c1 : 4700
Cc1cc(COc2ccc(C(F)(F)F)cc2Cl)cc(C(=O)O)c1 : 974
O=C(O)c1cccc(COc2ccc(Cl)cc2Cl)c1 : 376
O=C(O)c1cccc(COc2ccc(Cl)cc2Cl)c1F : 1500
O=C(O)c1cc(COc2ccc(C(F)(F)F)cc2Cl)ccc1F : 1070
O=C(O)c1cccc(COc2ccc(Cl)cc2Cl)n1 : 1210
Cc1cc(C(F)(F)F)ccc1OCc1cccc(C(=O)O)c1F : 1200
O=C(O)c1cc(F)cc(COc2ccc(C(F)(F)F)cc2Cl)c1 : 1040

Would you be so kind as to report AUC at 24 h for each listed record?
1. O=C(O)c1cccc(COc2ccc(C(F)(F)F)cc2Cl)c1
2. O=C(O)c1cccc(COc2ccc(C(F)(F)F)cc2Cl)c1F
3. Cc1cc(COc2ccc(C(F)(F)F)cc2C)cc(C(=O)O)c1

615
2150
572

----------
Exercise: for every item that follows, state its recorded IC50.
system.tested: Mas-related G-protein coupled receptor member X4 (Homo sapiens, UniProt Q96LA9)
Sequence (Q96LA9 whole entry): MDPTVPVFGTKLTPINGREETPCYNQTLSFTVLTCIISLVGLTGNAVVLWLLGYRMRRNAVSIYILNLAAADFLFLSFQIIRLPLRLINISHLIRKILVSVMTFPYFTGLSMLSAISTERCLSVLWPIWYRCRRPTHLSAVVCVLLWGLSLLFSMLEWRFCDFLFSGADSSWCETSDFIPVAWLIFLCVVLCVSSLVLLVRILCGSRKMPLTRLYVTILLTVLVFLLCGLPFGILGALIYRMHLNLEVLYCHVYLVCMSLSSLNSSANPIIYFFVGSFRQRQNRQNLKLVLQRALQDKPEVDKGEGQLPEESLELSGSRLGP
experiment.notes: Antagonist activity at human MRGPRX4 expressed in HEK cells incubated in dark for 1 hr at 37 degree C and then incubated for 30 mins at room temperature in presence of […] bilirubin by HTRF assay
Format: functional, cell-based

The cases that follow already have their IC50 on record.
O=C(O)c1cccc(COc2ccc(C(F)(F)F)cc2C(F)(F)F)c1 : < 100 nM
N#Cc1cc(COc2ccc(C(F)(F)F)cc2Cl)cc(C(=O)O)c1 : < 100 nM
COc1ccc(C(=O)O)cc1COc1ccc(Cl)cc1Cl : > 2500 nM
O=C(O)c1cccc(NC(=O)c2cccc(COc3ccc(C(F)(F)F)cc3Cl)c2)c1 : > 2500 nM
CC(C)(C)c1ccccc1OCc1cccc(C(=O)O)c1 : > 2500 nM

Would you be so kind as to report IC50 for each listed record?
1. O=C(O)c1cccc(COc2ccc(C(F)F)cc2Cl)c1
2. COc1cc(COc2ccc(C(F)(F)F)cc2Cl)cc(C(=O)O)c1
3. Cc1cc(OCc2cccc(C(=O)O)c2)ccc1C(F)(F)F
4. O=C(O)c1nc(COc2ccc(C(F)(F)F)cc2Cl)ccc1F
5. O=C(O)c1cccc(COc2ccc(C(F)(F)F)cc2Br)c1

["< 100 nM", "< 100 nM", "> 2500 nM", "< 100 nM", "< 100 nM"]

Using the record for O=C(O)c1cccc(COc2ccc3c(c2)CCC3=O)c1 , report its IC50.
> 2500 nM

----------
Exercise: for every item that follows, state its recorded IC50.
system.tested: Mas-related G-protein coupled receptor member X4 (Homo sapiens)
experiment.notes: Antagonist activity at human MRGPRX4 expressed in HEK cells incubated in dark for 1 hr at 37 degree C and then incubated for 30 mins at room temperature in presence of […] bilirubin by HTRF assay
Assay type: functional, cell-based

Cc1cc(Cl)ccc1OCc1cccc(C(=O)O)c1F : < 100 nM
O=C(O)c1cccc(COc2ccc(Cl)cc2Cl)c1 : < 100 nM
CC(C)c1ccccc1OCc1cccc(C(=O)O)c1 : > 2500 nM
O=C(O)c1cccc(COc2ccc(Cl)c(F)c2Cl)c1 : < 100 nM
O=C(O)c1cc(COc2ccc(C(F)(F)F)cc2Cl)ccc1F : < 100 nM
O=C(O)c1cccc(COc2ccc(Cl)c(F)c2)c1 : < 100 nM
N#Cc1cc(COc2ccc(C(F)(F)F)cc2Cl)nc(C(=O)O)c1 : < 100 nM
O=C(O)c1cccc(COc2ccccc2C(F)F)c1 : > 2500 nM
O=C(O)c1cccc(COc2c(Cl)cccc2Cl)c1 : > 2500 nM
O=C(O)c1cccc(COc2ccc(C(F)(F)F)c(F)c2)c1 : < 100 nM

Would you be so kind as to report IC50 for each listed record?
1. O=C(O)c1cccc(COc2ccc(OC(F)(F)F)c(Cl)c2)n1
2. O=C(O)c1c(F)ccc(COc2ccc(C(F)(F)F)cc2Cl)c1F

< 100 nM
< 100 nM

----------
system.tested: Mas-related G-protein coupled receptor member X4 (Homo sapiens, UniProt Q96LA9)
experiment.notes: Antagonist activity at human MRGPRX4 expressed in HEK cells incubated in dark for 1 hr at 37 degree C and then incubated for 30 mins at room temperature in presence of 50 uM of urobilin by HTRF assay
Type: functional, cell-based
parameter.measured: pIC50
One number for each entry, as −log10 of the molar value.

# returns recorded pIC50 (system: Mas-related G-protein coupled receptor member X4 (Homo sapiens, UniProt Q96LA9)) for Clc1ccc(OCc2cccc(-c3nnn[nH]3)c2)c(Cl)c1Cl
8.22

----------
system.tested: Mas-related G-protein coupled receptor member X4 (Homo sapiens)
experiment.notes: Antagonist activity at human MRGPRX4 expressed in HEK cells incubated in dark for 1 hr at 37 degree C and then incubated for 30 mins at room temperature in presence of […] bilirubin by HTRF assay
Format: functional, cell-based
pIC50: −log10 of the molar value.
parameter.measured: pIC50

The cases that follow already have their pIC50 on record.
O=C(O)c1cccc(COc2ccc(C(F)(F)F)cc2Cl)c1F : > 7.00
O=C(O)c1cccc(COc2ccccc2Cl)c1F : < 5.60

Would you be so kind as to report pIC50 for each listed record?
1. O=C(O)c1cccc(COc2ccc(OC(F)(F)F)cc2Cl)c1
2. COC(=O)c1cccc(COc2ccc3scnc3c2)c1
3. FC(F)(F)c1ccc(OCc2cccc(-c3nnn[nH]3)c2)cc1Cl

1. > 7.00
2. < 5.60
3. > 7.00

----------
Exercise: for every item that follows, state its recorded half-life.
experiment.notes: Half life in C57BL/6 mouse at 50 mg/kg, po measured upto 24 hrs by LC-MS/MS analysis
Format: ADME, organism-based
measurement.setup: in vivo
One number for each entry, in h.

O=C(O)c1cccc(COc2ccc(Cl)cc2Cl)c1F : 5.9
Cc1cc(COc2ccc(C(F)(F)F)cc2Cl)cc(C(=O)O)c1 : 4.6
Cc1cc(COc2ccc(C(F)(F)F)cc2C)cc(C(=O)O)c1 : 3.6
O=C(O)c1cccc(COc2ccc(C(F)(F)F)cc2Cl)c1 : 4.6
O=C(O)c1cc(COc2ccc(C(F)(F)F)cc2Cl)ccc1F : 4.7

Would you be so kind as to report half-life for each listed record?
1. CCc1cc(COc2ccc(C(F)(F)F)cc2Cl)nc(C(=O)O)c1
2. O=C(O)c1cccc(COc2ccc(C(F)(F)F)cc2Cl)c1F
3. O=C(O)c1cc(F)cc(COc2ccc(C(F)(F)F)cc2Cl)c1
4. O=C(O)c1cccc(COc2ccc(C(F)(F)F)cc2Cl)n1
5. O=C(O)c1cccc(COc2ccc(Cl)cc2Cl)c1
6. O=C(O)c1cccc(COc2ccc(Cl)c(Cl)c2Cl)c1
7. Cc1cc(C(F)(F)F)ccc1OCc1cccc(C(=O)O)c1F
8. O=C(O)c1cccc(COc2ccc(Cl)cc2Cl)n1

1: 5.4; 2: 11.2; 3: 4.8; 4: 3.2; 5: 4.2; 6: 4; 7: 4.8; 8: 3
